Provenance of the data: patent US9326516B2

In this section we review reported mortality at 50 µg/cm2 values for a set of compounds.
System: Beet Armyworm (Spodoptera exigua, LAPHEG)
test: Bioassay on Beet Armyworm (BAW), 128-well diet tray assay
Type: in vivo
settings: 168 h, 50 μg/cm^2 on artificial diet, second instar BAW larvae, 25° C., five to seven days, average of eight wells, read-out: BAW % Control (or Mortality) rating
measured metric: mortality at 50 µg/cm2

                                   compound                               measured_on         measured_metric    measured
0  Cc1cc(C2CSC(Nc3ccc(-c4ncn(-c5ccc(C(F)(F)F)cc5)n4)cc3)=N2)ccc1Cl (centres unmarked)  Beet Armyworm (Spodoptera exigua, LAPHEG)  mortality at 50 µg/cm2          0%
1  Fc1ccc(C2COC(Nc3ccc(-c4ncn(-c5ccc(OC(F)(F)F)cc5)n4)cc3)=N2)cc1 (centres unmarked)  Beet Armyworm (Spodoptera exigua, LAPHEG)  mortality at 50 µg/cm2  50 to 100%
2  FC(F)(F)c1ccc(-n2cnc(-c3ccc(NC4=NC(c5cccc(Cl)c5)CS4)cc3)n2)cc1 (centres unmarked)  Beet Armyworm (Spodoptera exigua, LAPHEG)  mortality at 50 µg/cm2  50 to 100%
3  FC(F)(F)Oc1ccc(-n2cnc(-c3ccc(NC4=NC(c5ccc(Br)cc5)CO4)cc3)n2)cc1 (centres unmarked)  Beet Armyworm (Spodoptera exigua, LAPHEG)  mortality at 50 µg/cm2  50 to 100%
4  FC(F)(F)Oc1ccc(-n2cnc(-c3ccc(NC4=NC(c5cccc(Cl)c5)CO4)cc3)n2)cc1 (centres unmarked)  Beet Armyworm (Spodoptera exigua, LAPHEG)  mortality at 50 µg/cm2          0%

---

The reader will find reported mortality at 50 µg/cm2 values listed item by item below.
Test system: Beet Armyworm (Spodoptera exigua, LAPHEG)
test: Bioassay on Beet Armyworm (BAW), 128-well diet tray assay
Assay type: in vivo
settings: 168 h, 50 μg/cm^2 on artificial diet, second instar BAW larvae, 25° C., five to seven days, average of eight wells, read-out: BAW % Control (or Mortality) rating
measured metric: mortality at 50 µg/cm2

>>> df
                                   molecule         measured_metric    measured
0  FC(F)(F)Oc1ccc(-n2cnc(-c3ccc(NC4=N[C@H](c5ccccc5)CO4)cc3)n2)cc1  mortality at 50 µg/cm2  50 to 100%
1  Fc1ccc(C2COC(Nc3ccc(-c4ncn(-c5ccc(C(F)(F)F)cc5)n4)cc3)=N2)cc1 (stereo not shown)  mortality at 50 µg/cm2  50 to 100%
2  FC(F)(F)Oc1ccc(C2CSC(Nc3ccc(-c4ncn(-c5ccc(OC(F)(F)F)cc5)n4)cc3)=N2)cc1 (stereo not shown)  mortality at 50 µg/cm2    0 to 50%
3  COc1ccc(C2COC(Nc3ccc(-c4ncn(-c5ccc(OC(F)(F)F)cc5)n4)cc3)=N2)cc1 (stereo not shown)  mortality at 50 µg/cm2  50 to 100%

---

Test system: Beet Armyworm (Spodoptera exigua, LAPHEG)
test: Bioassay on Beet Armyworm (BAW), 128-well diet tray assay
Type: in vivo
settings: 168 h, 50 μg/cm^2 on artificial diet, second instar BAW larvae, 25° C., five to seven days, average of eight wells, read-out: BAW % Control (or Mortality) rating
measured metric: mortality at 50 µg/cm2

In [3]: df
Out[3]:
                                   compound    measured
0  Cc1ccc(C2CCOC(Nc3ccc(-c4ncn(-c5ccc(OC(F)(F)F)cc5)n4)cc3)=N2)cc1 (stereo not drawn) [Compound F44]    0 to 50%
1  COc1ccc(C2CSC(Nc3ccc(-c4ncn(-c5ccc(OC(F)(F)F)cc5)n4)cc3)=N2)cc1 (stereo not drawn) [Compound F21]  50 to 100%
2  FC(F)(F)Oc1ccc(-n2cnc(-c3ccc(NC4=NC(c5ccc(Cl)cc5)CCO4)cc3)n2)cc1 (stereo not drawn) [Compound F43]    0 to 50%
